So I've got a bunch of compounds here, and I need their pEC50 values.
Biological target: UniProt A0A240FBD5
Sequence (A0A240FBD5 1-451): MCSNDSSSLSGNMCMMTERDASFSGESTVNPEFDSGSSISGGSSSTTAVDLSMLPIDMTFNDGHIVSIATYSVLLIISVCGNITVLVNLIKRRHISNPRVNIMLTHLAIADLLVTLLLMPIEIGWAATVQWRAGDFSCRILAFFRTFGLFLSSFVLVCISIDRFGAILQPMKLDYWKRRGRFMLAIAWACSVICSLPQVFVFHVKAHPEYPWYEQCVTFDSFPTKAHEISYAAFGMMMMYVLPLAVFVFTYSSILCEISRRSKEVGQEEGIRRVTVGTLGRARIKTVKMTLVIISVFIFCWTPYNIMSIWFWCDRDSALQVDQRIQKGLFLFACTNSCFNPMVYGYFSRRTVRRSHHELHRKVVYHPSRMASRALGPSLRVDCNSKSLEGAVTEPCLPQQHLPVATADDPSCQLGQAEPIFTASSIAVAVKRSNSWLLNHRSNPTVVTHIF
Assay: in vitro cell-based bioluminescence (aequorin Ca2+) assay on Dappu-RPCHR expressing CHO-WTA11 cells
Settings: Table 2; analogues of Dappu-RPCH
Where a SMILES comes first, the peptide text is derived from it. [ ]: non-standard residue; d: D form. pGlu = O=C1CC[C@@H](C(=O)O)N1
In simple prose, pEC50 is minus the logarithm base ten of a concentration in moles per litre.

-- ask Report pEC50 for CC(C)[C@H](NC(=O)[C@@H]1CCC(=O)N1)C(=O)N[C@@H](CC(N)=O)C(=O)N[C@@H](Cc1ccccc1)C(=O)N[C@@H](CO)C(=O)N[C@H](C(=O)N[C@@H](CO)C(=O)N[C@@H](Cc1c[nH]c2ccccc12)C(N)=O)[C@@H](C)O [Dappu-RPCH, pQVNFSTSWamide] ([pGlu]VNFSTSW-NH2) please.
-- reply 10.19

-- ask Report pEC50 for CC(C)[C@H](NC(=O)[C@@H]1CCC(=O)N1)C(=O)N[C@@H](C)C(=O)N[C@@H](Cc1ccccc1)C(=O)N[C@@H](CO)C(=O)N[C@H](C(=O)N[C@@H](CO)C(=O)N[C@@H](Cc1c[nH]c2ccccc12)C(N)=O)[C@@H](C)O [[Ala^3]Dappu-RPCH, pQVAFSTSWamide] ([pGlu]VAFSTSW-NH2) please.
-- reply 6.81

-- ask Report pEC50 for CC(C)[C@H](NC(=O)[C@@H]1CCC(=O)N1)C(=O)N[C@@H](CC(N)=O)C(=O)N[C@@H](Cc1ccccc1)C(=O)N[C@@H](CO)C(=O)N[C@H](C(=O)N[C@@H](CO)C(=O)N[C@@H](Cc1c[nH]c2ccccc12)C(=O)O)[C@@H](C)O [[Trp-OH]Dappu-RPCH, pQVNFSTSW-OH] ([pGlu]VNFSTSW-OH) please.
-- reply 7.76

Origin of values: paper PMC5537346
